Tested on: SUM-159-PT
Assay: Anticancer activity against human SUM159 cells assessed as decrease in secondary tumor sphere formation incubated for 72 hrs by Extreme limiting dilution analysis
Type: functional, cell-based
Calls of active or inactive are those of the source. The calls are words filed in the database; no cut-off is given here.
# output must be one of active, inactive

Here's what some known entries look like.
structure notation	class
Cc1sc2c(c1C)C(c1ccc(Cl)cc1)=N[C@@H](CC(=O)OC(C)(C)C)c1nnc(C)n1-2	active
CC[C@@H](C(=O)[C@@H](C)[C@@H](O)[C@H](C)[C@@H]1O[C@@H]([C@@H](CC)C(=O)O)CC[C@@H]1C)[C@H]1O[C@]2(C=C[C@@H](O)[C@]3(CC[C@@](C)([C@H]4CC[C@](O)(CC)[C@H](C)O4)O3)O2)[C@H](C)C[C@@H]1C	active
CCCc1cc(C)[nH]c(=O)c1CNC(=O)c1cc(-c2ccnc(N3CCN(C)CC3)c2)cc2c1cnn2C(C)C	inactive

Now take the following compound into account.
// query Hi team, can someone confirm the assay call for CC#C[C@]1(O)CC[C@H]2[C@@H]3CCC4=CC(=O)CCC4=C3[C@@H](c3ccc(N(C)C)cc3)C[C@@]21C ?
// result active
